// provenance: ChEMBL document CHEMBL3507680

measurement-notes: Human HepG2 cell viability assay in 384 well format
Type: toxicity, cell-based
Set-up: dose 125 nL, time 70.5 hour; concentration not given beside the values
stated-conditions: HepG2 cells, read-out: Inhibition
cytotoxicity at 70.5 h values, listed per item
Value expressed in %; do not type the unit.

Consider the worked cases shown below.
CC(=O)N1CCCC(Cc2cncc(Br)c2)CC1 (configuration not stated); 19.5
OC1(CNc2ccc(Br)cn2)CCSCC1; 15.9
Cc1oc(NC(=O)C(C)N2CCN(C(=O)C3CC3)CC2)c(C#N)c1C (configuration not stated); -1.91

For record CC(NCc1nnc2n1CCCC2)c1nc(Cc2ccccc2)no1 (configuration not stated) the listed cytotoxicity at 70.5 h is -8.89

For record `O=C(CCn1c(C(F)(F)F)cc2cccnc21)N1CCOCC1` the listed cytotoxicity at 70.5 h is 0.815

---

cytotoxicity at 70.5 h values, listed per item
measurement-notes: Human HepG2 cell viability assay in 384 well format
Assay type: toxicity, cell-based
Parameters: dose 125 nL, time 70.5 hour; concentration not given beside the values
stated-conditions: HepG2 cells, read-out: Inhibition

Consider the worked cases shown below.
Cc1csc(CN(CC2CCCO2)C(=O)c2ccc(C)nc2C)n1 (stereo not drawn); 15.4%
CCc1ccc2c(C3CN(S(C)(=O)=O)C3)ncn2c1; 9.29%
O=C(CN1CCCC1Cn1cncn1)Nc1ccnn1C1CCCC1 (stereo not drawn); -4.96%
CC(C)(C)CN(CCC#N)Cn1cc(Cl)cn1; -3.15%
Cc1cnc(N)c(C(=O)C2CCN(C(=O)c3ccccc3F)CC2)c1; -11.6%

For record `Cc1cc(C(F)(F)F)n2nc(C3CCN(S(C)(=O)=O)CC3)cc2n1` the listed cytotoxicity at 70.5 h is -7.35%

For record c1csc(-c2noc(CC3CCCO3)n2)c1 (stereo not drawn) the listed cytotoxicity at 70.5 h is 6.86%

---

cytotoxicity at 70.5 h values, listed per item
measurement-notes: Human HepG2 cell viability assay in 384 well format
Type: toxicity, cell-based
Design: dose 125 nL, time 70.5 hour; concentration not given beside the values
stated-conditions: HepG2 cells, read-out: Inhibition
Value expressed in %; do not type the unit.

Cc1cc(C(F)(F)F)n2nc(C3CCN(S(=O)(=O)N(C)C)CC3)cc2n1; -0.288
Cc1cc(C(=O)N2CC[C@@H]3CN(CCC(C)C)S(=O)(=O)[C@@H]3CC2)no1; -2.89

For record `CO[C@@H]1CCN(Cc2c(C)noc2C)[C@@H]2CN(Cc3ccco3)C[C@@H]21` the listed cytotoxicity at 70.5 h is -2.94

---

measurement-notes: Human HepG2 cell viability assay in 384 well format
Format: toxicity, cell-based
Parameters: dose 125 nL, time 70.5 hour; concentration not given beside the values
stated-conditions: HepG2 cells, read-out: Inhibition
reported-metric: cytotoxicity at 70.5 h (%)
Value expressed in %; do not type the unit.

Consider the worked cases shown below.
CN(Cc1nc2ccccc2[nH]1)C(=O)C(C)(C)n1cc(Cl)cn1; -12.7
COCC(=O)N[C@H](C(=O)NC(C)c1cccc(C)c1C)C(C)C (some centres undefined); 0.118
CSC1(CNc2ccc(Br)cn2)CCOCC1; -2.33
N#Cc1cnn(-c2ccc(C(=O)N(C3CCCCC3)C3CC3)cc2)c1N; -0.0932

Please turn your attention to the following entry.
For record `O=C(Cn1cccn1)N1CCc2[nH]nc(-c3ccc4c(c3)OCO4)c2C1` the listed cytotoxicity at 70.5 h is -7.87

---

cytotoxicity at 70.5 h values, listed per item
measurement-notes: Human HepG2 cell viability assay in 384 well format
Format: toxicity, cell-based
Set-up: dose 125 nL, time 70.5 hour; concentration not given beside the values
stated-conditions: HepG2 cells, read-out: Inhibition
Value expressed in %; do not type the unit.

Consider the worked cases shown below.
CCN1CC(C(=O)NCc2ccc3c(c2)nc(C)n3C)CCC1=O (centres undefined); -13.6
Cc1cc(C)n(-c2cncc(N3CCN(C(=O)C(C)(C)C)CC3)n2)n1; 1.04
CCS(=O)(=O)CC(C)NC(=O)N(C)Cc1cc(Cl)cn1C (centres undefined); -7.58
O=C(NC1CC1)C1CCCN1c1ncnc2ccsc12 (centres undefined); -9.43
COc1ccc2c(c1)CCCC2CC(=O)NCC(C)(C)C(=O)O (centres undefined); -10.7

For record `O=C(c1ccoc1)N1CCC2(CC1)C(=O)Nc1ccccc12` the listed cytotoxicity at 70.5 h is -2.01

For record Cc1nc(C)n(C2CCCN(C(=O)CCOCC(C)C)C2)n1 (centres undefined) the listed cytotoxicity at 70.5 h is 11

For record `CS(=O)(=O)NCCC(=O)Nc1cnn(-c2ccccc2Cl)c1` the listed cytotoxicity at 70.5 h is -11.9

For record `Cc1cnn(CC(=O)N2CCC(Nc3ccc(C)nn3)CC2)c1` the listed cytotoxicity at 70.5 h is 12.8

---

cytotoxicity at 70.5 h values, listed per item
measurement-notes: Human HepG2 cell viability assay in 384 well format
Assay type: toxicity, cell-based
Parameters: dose 125 nL, time 70.5 hour; concentration not given beside the values
stated-conditions: HepG2 cells, read-out: Inhibition
Value expressed in %; do not type the unit.

For record `C=C(C)COc1cccc(CN(CC)Cc2noc(C)n2)c1` the listed cytotoxicity at 70.5 h is -0.0989

For record `Cc1ccc(C(=O)NCCS(=O)(=O)Cc2ccccc2)c(=O)[nH]1` the listed cytotoxicity at 70.5 h is -9.89

---

cytotoxicity at 70.5 h values, listed per item
measurement-notes: Human HepG2 cell viability assay in 384 well format
Assay type: toxicity, cell-based
Design: dose 125 nL, time 70.5 hour; concentration not given beside the values
stated-conditions: HepG2 cells, read-out: Inhibition
Value expressed in %; do not type the unit.

O=C(O)CNc1cc(-c2cc(C(=O)NC3CC3)ccn2)c2cc[nH]c2n1; -0.0958
O=C(c1c(F)cccc1Br)N1CCCOCC1; 3.06
COc1ccc(NC(=O)CSC(F)(F)F)cn1; 9.73
COCCCNC(=O)Nc1ccc(F)c(C(N)=O)c1; 0.915
Cc1nc(CN2CC3(CCN(c4nccs4)C3)CC2=O)cs1 (stereo not given); -1.92
O=C1CO[C@@H]2CN(Cc3cccs3)C[C@H]2N1CC1CC1; -9.66
CN(CCN1CCCCCC1)C(=O)c1c(O)cccc1O; -2.54
CCC(C)NC(=O)c1ccc(CNC(=O)CC(C)(C)C)cc1 (stereo not given); -9.82

For record `CO[C@@H]1CC[C@H]2[C@H]1OCCN2Cc1ccc(F)c(F)c1` the listed cytotoxicity at 70.5 h is -9.19

For record `O=C(Cn1c(=O)n(Cc2ccco2)c2ncccc21)NC1CC1` the listed cytotoxicity at 70.5 h is -4.4

For record `NS(=O)(=O)CCNC(=O)c1ccc(-c2ccc(F)cc2)cc1F` the listed cytotoxicity at 70.5 h is -6.9

For record `CC(=O)NCCC(=O)NCCCOc1c(C)cccc1C` the listed cytotoxicity at 70.5 h is -6.31

For record CSCCC(C)NC(=O)N(C)Cc1cc(Cl)cn1C (stereo not given) the listed cytotoxicity at 70.5 h is -10.9

For record `Cn1cc(CNCCc2nccs2)c(-c2cccnc2)n1` the listed cytotoxicity at 70.5 h is -8.44

For record `CCCc1nc(C)cc(NCCc2nnc(N)s2)n1` the listed cytotoxicity at 70.5 h is -12.9

For record O=C(CN1CCCCCC1=O)NC1CCc2nccn2C1 (stereo not given) the listed cytotoxicity at 70.5 h is -8.44

---

measurement-notes: Human HepG2 cell viability assay in 384 well format
Format: toxicity, cell-based
Set-up: dose 125 nL, time 70.5 hour; concentration not given beside the values
stated-conditions: HepG2 cells, read-out: Inhibition
reported-metric: cytotoxicity at 70.5 h (%)
Value expressed in %; do not type the unit.

CN1CCN(C(CNC(=O)CCn2cccn2)c2cccs2)CC1 (stereo unspecified); -4.76
Cn1nc(C2CCN(C(=O)Cc3ccsc3)CC2)c2cccnc21; -7.5

For record `CCN1CCCn2c(nc(CNC(=O)c3ccsc3)cc2=O)C1` the listed cytotoxicity at 70.5 h is -15.8

For record `Cc1nc2n(n1)CCN(S(=O)(=O)c1ccc(Cl)cc1)C2` the listed cytotoxicity at 70.5 h is -3.28

For record `Cc1cc(C)c(CNC(=O)N2CCN(c3ncccn3)CC2)c(=O)[nH]1` the listed cytotoxicity at 70.5 h is 0.0542

For record `Cc1cccnc1N1CC2(CCN(Cc3cnn(C)c3)C2)C1` the listed cytotoxicity at 70.5 h is -10.7

---

measurement-notes: Human HepG2 cell viability assay in 384 well format
Assay type: toxicity, cell-based
Parameters: dose 125 nL, time 70.5 hour; concentration not given beside the values
stated-conditions: HepG2 cells, read-out: Inhibition
reported-metric: cytotoxicity at 70.5 h (%)
Value expressed in %; do not type the unit.

Consider the worked cases shown below.
Cc1csc(N2CCN(C(=O)c3c(C)oc(C)c3C)CC2)n1; -1.28
c1cnc(N2CCC3(CCCN(Cc4ccncc4)C3)CC2)nc1; 18.3
CC(NC(=O)C1=NN(C)C(=O)CC1)c1cccc(Cl)c1 (configuration not stated); -85.8

For record `O=C(OCCF)c1cccc(C(=O)N2CCCC2)n1` the listed cytotoxicity at 70.5 h is 26.7

For record `CCN(C1CCN(Cc2ncc(C(C)(C)C)o2)CC1)S(C)(=O)=O` the listed cytotoxicity at 70.5 h is -7.94

For record Cc1cc(C(=O)N2CC(O)CO2)c2cccc(C)c2n1 (configuration not stated) the listed cytotoxicity at 70.5 h is -13

For record Cc1ccc2c(c1)c(CNC(=O)C1CC(=O)N(CCN(C)C)C1)nn2C (configuration not stated) the listed cytotoxicity at 70.5 h is -0.487
